Kindly find below log10 IC50 information for UniProt:P28845 taken from the literature.
Sequence (P28845 whole entry): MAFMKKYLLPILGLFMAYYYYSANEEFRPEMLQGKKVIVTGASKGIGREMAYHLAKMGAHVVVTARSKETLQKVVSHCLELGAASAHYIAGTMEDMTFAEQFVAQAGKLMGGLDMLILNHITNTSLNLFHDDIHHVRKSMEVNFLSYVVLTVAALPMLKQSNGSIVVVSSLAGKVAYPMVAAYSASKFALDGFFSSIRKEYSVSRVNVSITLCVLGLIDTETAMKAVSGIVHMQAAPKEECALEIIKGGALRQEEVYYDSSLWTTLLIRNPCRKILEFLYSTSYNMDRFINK
assay.endpoint: log10 IC50 (log10 of the value in µM)

>  <molecule>
C[C@@H]1CN(c2ccc(F)cc2C(F)(F)F)CCN1S(=O)(=O)c1cccc(-n2cncn2)c1

>  <log10 IC50>
-1.59

$$$$
>  <molecule>
C1CCc2nnc(C34CC5CC(CC(C5)C3)C4)n2CC1

>  <log10 IC50>
-2.11

$$$$
>  <molecule>
Cn1c(-c2cccc(F)c2)nnc1C1(c2ccc(Cl)cc2)CCC1

>  <log10 IC50>
-2.66

$$$$
>  <molecule>
O=C(O)CC1(c2ccc(F)cc2)CCCCC1

>  <log10 IC50>
-0.16

$$$$
>  <molecule>
C[C@@H]1CN(c2ccc(F)cc2C(F)(F)F)CCN1S(=O)(=O)c1ccc([C@](C)(O)C(F)(F)F)s1

>  <log10 IC50>
-2.00

$$$$
>  <molecule>
CC(=O)N(C)c1ccc(S(=O)(=O)Nc2nc(C)c(C)o2)cc1

>  <log10 IC50>
2.00

$$$$
>  <molecule>
Cc1noc(C23CCC(c4nnc5n4CCCCCC5)(CC2)CC3)n1

>  <log10 IC50>
-0.54

$$$$
>  <molecule>
O=C(CN1C(C(=O)c2ccccc2)=C(O)c2ccccc2S1(=O)=O)c1ccc(-c2ccccc2)cc1

>  <log10 IC50>
-1.55

$$$$
>  <molecule>
COC(=O)C12CCC(c3nnc4n3CCCCCC4)(CC1)CC2

>  <log10 IC50>
-0.96

$$$$
>  <molecule>
O=C(O)CC1(c2ccccc2)C2CC3CC(C2)CC1C3 (stereo unspecified)

>  <log10 IC50>
-1.70

$$$$
>  <molecule>
CC(C)(Oc1ccc(-n2cccn2)cn1)C(=O)N[C@H]1C2CC3CC1C[C@](C(N)=O)(C3)C2

>  <log10 IC50>
-2.30

$$$$
>  <molecule>
Clc1ccc(C2(c3nnc4n3CCCCCC4)CCCCC2)cc1

>  <log10 IC50>
-1.49

$$$$
>  <molecule>
c1ccc(C2(c3nnc4n3CCCCCC4)CC2)cc1

>  <log10 IC50>
-2.10

$$$$
>  <molecule>
O=S(=O)(c1ccc(Cl)c(Cl)c1)N1CCN(c2ccc(F)cc2C(F)(F)F)CC1

>  <log10 IC50>
-1.17

$$$$
>  <molecule>
CC(C)(Oc1ccc(Cl)cc1)C(=O)N[C@H]1C2CC3CC1C[C@](Cc1nnn[nH]1)(C3)C2

>  <log10 IC50>
-1.39

$$$$
>  <molecule>
CC(C)(C(=O)N[C@H]1C2CC3CC1C[C@](C(N)=O)(C3)C2)c1ccc(C#N)cn1

>  <log10 IC50>
-1.85

$$$$
